Biological target: corticotropin releasing factor 1 receptor
Assay: cell-based or functional assay
Ends that are not written are not given here.
measured-metric: CRF1R EC50 (nM)
The answer is to be given in nM; state only the numeric part.

Solved cases below.
In [3]: df
Out[3]:
                                     binder  measured_metric  test_value
0  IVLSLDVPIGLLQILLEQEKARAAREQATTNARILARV-NH2 [SEQ ID NO 325]       CRF1R EC50         100
1  ZGPPISIDLPIFLLRKVIEIEKQEKEKQQAANNALLLATI (C-terminal amide) [SEQ ID NO 280]       CRF1R EC50        1000
2  DNPSLSIDLPLLLLRTLLELEKTQSQRERAEQNAQIFAQV-NH2 [SEQ ID NO 327]       CRF1R EC50        1000
3  DNPSLSIDLPLQLLRTLLELEKTQSQRERAEQNAIIFASV-NH2 [SEQ ID NO 342]       CRF1R EC50        1000
4  ZGPPISIDLPIFLLRKMIEIEKQEKEKQQAANNALLLATI (C-terminal amide) [SEQ ID NO 298]       CRF1R EC50        1000

Problem: For the binder ZGPPISIDLPFHLLRKMIEIEKQEKEKQQAANNALLLATI (C-terminal amide) [SEQ ID NO 229] , what CRF1R EC50 is on record?
Result: 298

Problem: For the binder DNPSLSIDVPLYLLRTLLELEKTQSQRERAEQNARIFARV-NH2 [SEQ ID NO 387] , what CRF1R EC50 is on record?
Result: 1000

Problem: For the binder ZGPPISIDLPFQLLRKVIEIEKQEKEKQQAANNAELLAEI (C-terminal amide) [SEQ ID NO 272] , what CRF1R EC50 is on record?
Result: 1000

Problem: For the binder ZGPPISIDLPFQLLRLLIEIEKQEKEKQQAANNALLLATI (C-terminal amide) [SEQ ID NO 360] , what CRF1R EC50 is on record?
Result: 157

Problem: For the binder ZGPPISIDLPLQLLRKMIEIEKQEKEKQQATTNARLLDTV (C-terminal amide) [SEQ ID NO 246] , what CRF1R EC50 is on record?
Result: 1000

Problem: For the binder ZGPPISIDLPFQLLRILIEIEKQEKEKQQAANNALLLAT (C-terminal amide) [SEQ ID NO 358] , what CRF1R EC50 is on record?
Result: 99

Problem: For the binder ZGPPISIDLPIYLLRKMIEIEKQEKEKQQAANNALLLDTI (C-terminal amide) [SEQ ID NO 236] , what CRF1R EC50 is on record?
Result: 1000
